subjectOfTest: cIAP2-BIR3 (Homo sapiens (Human))
Sequence (Q13489 238-349): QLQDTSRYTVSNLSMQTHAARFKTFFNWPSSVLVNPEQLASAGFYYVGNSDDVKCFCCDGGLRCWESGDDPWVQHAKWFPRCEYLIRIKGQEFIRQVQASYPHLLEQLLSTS
testDetails: BIR binding assay (FRET competition), cIAP2 BIR3
pIC50: −log10 of the molar value.
measureName: pIC50

| smilesData | pIC50 |
| --- | --- |
| C[C@@H]1CN(CC(=O)N2CC(C)(C)c3[nH]c(=O)c(Cc4ccc(F)cc4)cc32)[C@@H](CN2CCN(CCc3cn(CCCCC(=O)N4CCN(C[C@H]5CN[C@H](C)CN5CC(=O)N5CC(C)(C)c6[nH]c(=O)c(Cc7ccc(F)cc7)cc65)[C@H](C)C4)nn3)C[C@H]2C)CN1 | 7.80 to 8.10 |
| C[C@@H]1CN(CC(=O)N2CC(C)(C)c3c2cc(Cc2ccc(F)cc2)c(=O)n3C)[C@@H](CN2CCO[C@H](COc3ccc(Cc4ccc(OC[C@@H]5CN(C[C@H]6CN[C@H](C)CN6CC(=O)N6CC(C)(C)c7c6cc(Cc6ccc(F)cc6)c(=O)n7C)CCO5)cc4)cc3)C2)CN1 | 6.30 to 7.50 |
| C[C@@H]1CN(CC(=O)N2CC(C)(C)c3[nH]c(=O)c(Cc4ccc(F)cc4)cc32)[C@@H](CN2CCN(Cc3cn(CC(=O)N4CCN(C[C@H]5CN[C@H](C)CN5CC(=O)N5CC(C)(C)c6[nH]c(=O)c(Cc7ccc(F)cc7)cc65)[C@H](C)C4)nn3)C[C@H]2C)CN1 | 7.80 to 8.10 |

Now, please, on to the next compound.
Input line: Request the reported pIC50 associated with C[C@@H]1CN(CC(=O)N2CC(C)(C)c3[nH]c(=O)c(Oc4ccccc4)cc32)[C@@H](CN2CCO[C@H](C(=O)NCc3ccc(CNC(=O)[C@@H]4CN(C[C@H]5CN[C@H](C)CN5CC(=O)N5CC(C)(C)c6[nH]c(=O)c(Oc7ccccc7)cc65)CCO4)cc3)C2)CN1
Output line: 8.10 to 8.86

* * *

Test system: Jurkat HIV-luciferase clones
testDetails: Jurkat latency reversal assay
Assay type: cell-based
appliedConditions: Homo sapiens, 48 h; Jurkat latency reversal assay potency; read-out: Jurkat pEC50 (converted)
measureName: EC50

Record excerpt, results attached:
| smilesData | EC50 |
| --- | --- |
| C[C@@H]1CN(CC(=O)N2CC(C)(C)c3[nH]c(=O)c(Cc4ccc(F)cc4)cc32)[C@@H](CN2CCO[C@H](COCCOCCOC[C@@H]3CN(C[C@H]4CN[C@H](C)CN4CC(=O)N4CC(C)(C)c5[nH]c(=O)c(Cc6ccc(F)cc6)cc54)CCO3)C2)CN1 | 12.6 to 63.1 nM |
| C[C@@H]1CN(CC(=O)N2CC(C)(C)c3[nH]c(=O)c(Cc4ccc(F)cc4)cc32)[C@@H](CN2CCC[C@@H](NC(=O)CCCCCCC(=O)N[C@@H]3CCCN(C[C@H]4CN[C@H](C)CN4CC(=O)N4CC(C)(C)c5[nH]c(=O)c(Cc6ccc(F)cc6)cc54)C3)C2)CN1 | 316 to 3310 nM |
| C[C@@H]1CN(CC(=O)N2CC(C)(C)c3[nH]c(=O)c(Cc4ccc(F)cc4)cc32)[C@@H](CN2CCN(Cc3cn(CCC(=O)N4CCN(C[C@H]5CN[C@H](C)CN5CC(=O)N5CC(C)(C)c6[nH]c(=O)c(Cc7ccc(F)cc7)cc65)[C@H](C)C4)nn3)C[C@H]2C)CN1 | 63.1 to 316 nM |
| C[C@@H]1CN(CC(=O)N2CC(C)(C)c3[nH]c(=O)c(Cc4ccc(F)cc4)cc32)[C@@H](CN2CCC(CCNC(=O)c3ccc(C(=O)NCCC4CCN(C[C@H]5CN[C@H](C)CN5CC(=O)N5CC(C)(C)c6[nH]c(=O)c(Cc7ccc(F)cc7)cc65)CC4)cc3)CC2)CN1 | 63.1 to 316 nM |
| C[C@@H]1CN(CC(=O)N2CC(C)(C)c3[nH]c(=O)c(Cc4ccc(F)cc4)cc32)[C@@H](CN2CCO[C@H](COc3cccc(OC[C@@H]4CN(C[C@H]5CN[C@H](C)CN5CC(=O)N5CC(C)(C)c6[nH]c(=O)c(Cc7ccc(F)cc7)cc65)CCO4)c3F)C2)CN1 | 0.49 to 12.6 nM |

Input line: Value lookup for EC50; key = C[C@@H]1CN(CC(=O)N2CC(C)(C)c3[nH]c(=O)c(Cc4ccc(F)cc4)cc32)[C@@H](CN2CCN(Cc3c(F)c(F)c(CN4CCN(C[C@H]5CN[C@H](C)CN5CC(=O)N5CC(C)(C)c6[nH]c(=O)c(Cc7ccc(F)cc7)cc65)[C@H](C)C4)c(F)c3F)C[C@H]2C)CN1
Output line: 316 to 3310 nM

Input line: Same for C[C@@H]1CN(CC(=O)N2CC(C)(C)c3[nH]c(=O)c(Cc4c(F)cc(F)cc4F)cc32)[C@@H](CN2CCO[C@H](COc3cccc(OC[C@@H]4CN(C[C@H]5CN[C@H](C)CN5CC(=O)N5CC(C)(C)c6[nH]c(=O)c(Cc7c(F)cc(F)cc7F)cc65)CCO4)c3)C2)CN1
Output line: 0.49 to 12.6 nM
